# test_target: Hck (UniProt P08631)
# Sequence (P08631 whole entry, looked up): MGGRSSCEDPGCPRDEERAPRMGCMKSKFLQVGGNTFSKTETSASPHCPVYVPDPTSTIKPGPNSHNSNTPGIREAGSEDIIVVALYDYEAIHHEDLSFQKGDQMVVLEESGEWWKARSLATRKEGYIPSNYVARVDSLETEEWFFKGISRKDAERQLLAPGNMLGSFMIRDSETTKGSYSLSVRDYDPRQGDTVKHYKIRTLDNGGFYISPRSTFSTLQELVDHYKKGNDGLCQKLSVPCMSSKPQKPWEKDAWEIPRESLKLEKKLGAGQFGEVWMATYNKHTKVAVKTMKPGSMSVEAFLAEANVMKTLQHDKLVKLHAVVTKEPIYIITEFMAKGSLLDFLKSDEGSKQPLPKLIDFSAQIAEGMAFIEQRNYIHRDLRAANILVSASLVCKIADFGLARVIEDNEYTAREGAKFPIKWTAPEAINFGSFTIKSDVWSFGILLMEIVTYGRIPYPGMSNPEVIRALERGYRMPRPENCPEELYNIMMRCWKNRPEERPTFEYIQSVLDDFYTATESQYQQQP
# experimental_details: phosphorylation enrichment, bacterial display (enrichment ratio); higher = better substrate or ligand; peptides without Tyr show the background;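 further: 11-residue human phosphosite peptides and single-mutation variants displayed on the E. coli surface, counted by deep sequencing, each peptide's frequency after selection divided by its frequency in the unselected input library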;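 further: frequency after pTyr selection over input frequency; kinase dosed for 20-30% of maximal phosphorylation in three min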
Classify as follows. Reported phosphorylation enrichment greater than or equal to 0.6: MET. Reported phosphorylation enrichment below: NOT MET.

residue_sequence | assigned_category
LFLASYCIGGG [UBD_Y161_C160S] | NOT MET
DVLEFCNSKKT [PAK1_Y131_Y131C] | NOT MET
AGQEEYSAMRD [HRAS_Y64] | NOT MET
DLNATYCTIQG [U2SURP_Y634_R635C] | MET
TKDTFHKQPMF [GBA_Y451_Y451H] | NOT MET
VGGRIYTDDGL [PKLR_Y218_I219T] | NOT MET
REDVFYTSKLW [AKR1C2_Y81_I79V] | MET
SEKISYVFMKR [SSX7_Y48_L43S_YF] | NOT MET
SAPPSYEETVA [LITAF_Y23] | NOT MET
YSGIYYKPESL [L2HGDH_Y103_H98Y] | MET
LYNQDYPIHSV [GATM_Y227] | MET
ASKEPYFVHCI [MYO1D_Y585_R588H_YF] | NOT MET
FVPSNYVAEDR [FRK_Y104_I100V_YF] | NOT MET
LIQRNYKLTAQ [ALPK2_Y1975_A1978T] | NOT MET
KDAGDYKCKAK [LRIT3_Y326] | NOT MET
YHLLPYTVRAM [PARS2_Y93] | MET
DPEAAYTTRGG [EPHA3_Y779] | NOT MET
RLLRGYNQSAY [HLA-C_Y137_D138N] | NOT MET
RKQQLYTAMEE [CCDC39_Y593] | MET
LIFTNYEVGKD [GSTP1_Y112_A114V_YF] | MET
RIRRRYCQVLN [IQCF1_Y144] | MET
SSNLFYRCLTA [CNGA3_Y169_W171C_YF] | NOT MET
KELALYDENWF [RPS19_Y48_P47L] | MET
LRGEDCGFSVD [PRKCI_Y430_Y430C] | MET
PLDGEHFTLQI [TP53_Y327_Y327H] | MET
QYRFIYMAVQH [PTPN11_Y515] | MET
GHLFAYNWISI [BEST1_Y227_D228N_YF] | NOT MET
KLLLKYSFHDV [RNF213_Y4141] | NOT MET
NGPDVYVLPLT [AATK_Y93] | MET
FCRHNYGVVES [HLA-DRB1_Y112_YF] | NOT MET
DEEEEYEYMNR [ERBB3_Y1197_D1194E] | NOT MET
LNEAVYTKMMT [G6PD_Y401_P396L] | MET
EAVLHYKHQNQ [MTOR_Y1804] | NOT MET
LRRFIYRPPDQ [OTOF_Y1231_R1236Q] | NOT MET
LFNQDYPIHSV [GATM_Y227_YF] | MET
SVKVYYKKCWF [EPHA7_Y202_S207F] | NOT MET
MSSHHYDYKKY [ZNF445_Y428] | NOT MET
VDASYYGGRGV [ANTXR2_Y381] | MET
ERKQTYGSCRK [LACTB_Y473] | NOT MET
LKALHYMAQTS [SACS_Y3367_V3369A] | MET
RLPINYTTRRI [LAMA2_Y2894_G2889R] | NOT MET
ARRHPYFYAPE [ALB_Y172] | NOT MET
ILGRYYERGSI [PAX5_Y73_T75R] | NOT MET
SEPDLYCDPRG [PKP1_Y160] | MET
ESSKAYERDLS [TTC37_Y1074_A1077D] | NOT MET
SDGHEYIFVDP [PDGFRB_Y579_YF] | NOT MET
YGMQLYQNYMH [GRB14_Y347] | MET
SVTCTNSPALN [TP53_Y126_Y126N] | NOT MET
ELPQTYCVSGP [DYSF_Y1684_G1679E] | NOT MET
NTEGGYCCICA [CRELD1_Y328_R329C] | MET
KPLMPYMRFSR [SMARCE1_Y73_YF] | NOT MET
GGRKGYGGFSR [RECQL5_Y478_D480G] | NOT MET
QCTSHYPEHVC [SART3_Y541_D540H] | MET
RNNIEYVRDIG [MUSK_Y577] | NOT MET
GISDEYHVIWH [GCDH_Y398_R402W] | MET

Source listed as the supplement of paper PMC10065799.
